Provenance of the data: PubChem BioAssay AID750

Assignment: determine reported activation factor for the given molecules.
method-summary: MT1-MMP promoter reporter activation – cell-based, luciferase luminescence, primary screen (AID 750)
experimental-context: HT1080 MT1-MMP promoter luciferase reporter, overnight, at 10 µM, stronger effect = higher value
Among all 86,000 compounds or so, about 140 (0.16%) were called active. What follows is part of a selection rich in actives, with near analogues and random picks from the rest.
Kindly provide the number alone.

Data request: Fill blank: measured activation factor of the molecule CC(Nc1nc(N2CCCC2)nc2ccccc12)c1ccccc1 (stereo unspecified) is ____.
Data returned: 1.1

Data request: Fill blank: measured activation factor of the molecule C=C(C)CNC(=S)/N=c1\scc(C)n1CC is ____.
Data returned: 1.3

Data request: Fill blank: measured activation factor of the molecule CC(C)CC[n+]1ccn(C2=C([O-])c3ccccc3C(=O)/C2=N\S(=O)(=O)c2ccccc2)c1 is ____.
Data returned: 0.8

Data request: Fill blank: measured activation factor of the molecule C=C(Cl)COC(=O)C1C2C=CC(C2)C1C(=O)O (stereo unspecified) is ____.
Data returned: 1.1

Data request: Fill blank: measured activation factor of the molecule CC1=CC(C)(C)NC(=S)N1c1ccccc1 is ____.
Data returned: 1.1

Data request: Fill blank: measured activation factor of the molecule COc1cc(C)c(C(C)C)cc1S(=O)(=O)n1ccnc1 is ____.
Data returned: 1.2

Data request: Fill blank: measured activation factor of the molecule CCOc1ccc(NC(=O)c2ccccc2NS(C)(=O)=O)cc1 is ____.
Data returned: 1.3

Data request: Fill blank: measured activation factor of the molecule OC(C#CCN1CCOCC1)(c1ccccc1)C1CCCCC1 (stereo unspecified) is ____.
Data returned: 1.1

Data request: Fill blank: measured activation factor of the molecule Cc1ccc(S(=O)(=O)NCC(=O)N(CC(=O)NC(C)(C)C)Cc2cccs2)cc1 is ____.
Data returned: 1.1

Data request: Fill blank: measured activation factor of the molecule Cc1ccc(C(CC(=O)O)Nc2nc(N3CCCCC3)nc(N3CCCCC3)n2)cc1 (stereo unspecified) is ____.
Data returned: 2

Data request: Fill blank: measured activation factor of the molecule O=C(NCCSCc1ccccc1)c1ccc(Cl)c(S(=O)(=O)N2CCOCC2)c1 is ____.
Data returned: 1.1

----------
method-summary: MT1-MMP promoter reporter activation – cell-based, luciferase luminescence, primary screen (AID 750)
experimental-context: HT1080 MT1-MMP promoter luciferase reporter, overnight, at 10 µM
Out of some 86,000 compounds screened, about 140 (0.16%) were called active.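 The calls were made as follows: active = activation factor of at least 2 for MT1-MMP transcription at 10 µM; inactive = the rest.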 The sample holds actives, similar compounds and a random draw of the others, so the mix is not that of the screen.
Pick one and only one: Y = active, N = inactive

Data request: Give the logged outcome of this assay for the following compound: CCCNC(=O)CN(Cc1ccccc1F)S(=O)(=O)c1ccc(C)cc1
Data returned: N

Data request: Give the logged outcome of this assay for the following compound: O=C(Nc1nccs1)c1cc(S(=O)(=O)N2CCOCC2)c(Cl)cc1Cl
Data returned: N

Data request: Give the logged outcome of this assay for the following compound: CCCNC(=S)N1CCC(NC(=O)C23CC4CC(CC(C4)C2)C3)CC1
Data returned: N

Data request: Give the logged outcome of this assay for the following compound: CC(C)OC(=O)CN1C(=O)C(=O)c2ccccc21
Data returned: N

Data request: Give the logged outcome of this assay for the following compound: Cc1cc(N/C=C\C(=O)c2ccc(Cl)c(Cl)c2)no1
Data returned: Y

Data request: Give the logged outcome of this assay for the following compound: Cc1cnc(NC(=O)CSc2nnc(C)s2)s1
Data returned: N

Data request: Give the logged outcome of this assay for the following compound: CCOCN(C(=O)Cn1c(C(C)O)nc2ccccc21)c1c(C)cccc1CC (centres undefined)
Data returned: N

Data request: Give the logged outcome of this assay for the following compound: CCN(CC(=O)NC1CCS(=O)(=O)C1)c1nc(-c2cccnc2)nc2ccccc12 (centres undefined)
Data returned: N

Data request: Give the logged outcome of this assay for the following compound: CC1=NN(C(C)C)C(=O)C1
Data returned: N

Data request: Give the logged outcome of this assay for the following compound: CCCCNS(=O)(=O)c1ccc(S(=O)(=O)n2cnc3ccccc32)cc1
Data returned: N

Data request: Give the logged outcome of this assay for the following compound: Cc1cc(Oc2ccccc2)nc(N2CCOCC2)n1
Data returned: N

Data request: Give the logged outcome of this assay for the following compound: CN1CCN(C(=O)Cn2c(C(F)(F)F)nc3ccccc32)CC1
Data returned: N

Data request: Give the logged outcome of this assay for the following compound: CC(C)C[C@@H](N)c1nnc(SCC(=O)c2ccc(Cl)cc2)o1
Data returned: N

Data request: Give the logged outcome of this assay for the following compound: Cc1cc(-c2ccccc2)nc(N2CCC(C(=O)NC34CC5CC(CC(C5)C3)C4)CC2)n1
Data returned: N

Data request: Give the logged outcome of this assay for the following compound: CCOC(=O)Nc1sc(C(=O)N(C)C)c(C)c1C(=O)OCC
Data returned: N

Data request: Give the logged outcome of this assay for the following compound: COc1ccc(NC(=O)CSc2nc(NS(=O)(=O)c3ccc(C)cc3)cc(=O)[nH]2)cc1
Data returned: N

Data request: Give the logged outcome of this assay for the following compound: O=C(Nc1nncs1)c1cccc(S(=O)(=O)N2CCCCC2)c1
Data returned: N

Data request: Give the logged outcome of this assay for the following compound: CC1(C)Cc2cccc(OCC(N)=O)c2O1
Data returned: N

Data request: Give the logged outcome of this assay for the following compound: O=P(O)(CP(=O)(c1ccccc1)c1ccccc1)c1ccccc1O
Data returned: N

Data request: Give the logged outcome of this assay for the following compound: O=C(NCc1ccccc1Cl)c1csc2c1CCCCC2
Data returned: N

Data request: Give the logged outcome of this assay for the following compound: CCc1ccc(CNC(=O)C2CCCN(c3nc4ccccc4o3)C2)cc1 (centres undefined)
Data returned: N

Data request: Give the logged outcome of this assay for the following compound: CCCCN(CC)CCNC(=O)c1[nH]c(C)c(C(C)=O)c1C
Data returned: N

Data request: Give the logged outcome of this assay for the following compound: Cc1cc(NC(=O)CSc2nnc(-c3ccc(Cl)s3)o2)no1
Data returned: N

Data request: Give the logged outcome of this assay for the following compound: CCOc1ccccc1NC(=O)c1cccnc1
Data returned: N
